target entity: HLA-A*23:01
assay protocol: IEDB peptide-MHC binding, purified MHC/direct/fluorescence; filed as Kd, often an IC50 or EC50 that approximates it; bounds were set here for any values at or beyond the usual limits of such assays
measurement context: source organism: Zaire ebolavirus
pKd: −log10 of the molar value.
measured property: pKd

INSERT INTO measurements (sequence_input, recorded_measurement) VALUES
  ('HLSGWELAK', '≤ 4.70');

* * *

target entity: HLA-B*07:02
assay protocol: IEDB peptide-MHC binding, purified MHC/competitive/radioactivity; filed as Kd, often an IC50 or EC50 that approximates it; bounds were set here for any values at or beyond the usual limits of such assays
measurement context: source organism: Mammarenavirus juninense
pKd: −log10 of the molar value.
measured property: pKd

INSERT INTO measurements (sequence_input, recorded_measurement) VALUES
  ('MPGVLSYVV', 5.99);

Data origin: the Immune Epitope Database (IEDB)
